- System: Norwalk virus
- Assay Name: Antiviral activity against Norwalk virus infected in human HG23 cells
- Type: functional, cell-based
Measure Name: pEC50
pEC50 field: float, defined as -log10 of concentration (mol/L).

// worked examples, pEC50 included
INSERT INTO assay_data (molecule, reported_measurement) VALUES
  ('CC(C)C[C@H](NC(=O)[C@H](Cc1ccc2ccccc2c1)NC(=O)OCc1ccccc1)C(=O)N[C@H](C=O)C[C@@H]1CCNC1=O', 7.10),
  ('CC(C)C[C@H](NC(=O)[C@H](Cc1cccc2ccccc12)NC(=O)OCc1ccccc1)C(=O)N[C@@H](C[C@@H]1CCNC1=O)C(O)S(=O)(=O)O (stereo partly drawn)', 7.40),
  ('CC(C)C[C@H](NC(=O)[C@H](Cc1ccc(-c2ccccc2)cc1)NC(=O)OCc1ccccc1)C(=O)N[C@H](C=O)C[C@@H]1CCNC1=O', 7.30);

What pEC50 value was documented for this molecule, CC(C)C[C@H](NC(=O)[C@@H](Cc1cccc2ccccc12)NC(=O)OCc1ccccc1)C(=O)N[C@H](C=O)C[C@@H]1CCNC1=O ?
6.35

What pEC50 value was documented for this molecule, CC(C)C[C@H](NC(=O)[C@H](Cc1ccccc1)NC(=O)OCc1ccccc1)C(=O)N[C@H](C=O)C[C@@H]1CCNC1=O ?
7.22

What pEC50 value was documented for this molecule, CC(C)C[C@H](NC(=O)[C@H](Cc1cccc2ccccc12)NC(=O)OCc1ccccc1)C(=O)N[C@@H](C[C@@H]1CCNC1=O)C(=O)C(=O)NC(C)C ?
5.38

What pEC50 value was documented for this molecule, CC(C)C[C@H](NC(=O)[C@H](Cc1cccc2ccccc12)NC(=O)OCc1ccccc1)C(=O)N[C@H](C=O)C[C@@H]1CCNC1=O ?
7.40

What pEC50 value was documented for this molecule, CCOP(=O)(OCC)C(O)[C@H](C[C@@H]1CCNC1=O)NC(=O)[C@H](CC(C)C)NC(=O)[C@H](Cc1cccc2ccccc12)NC(=O)OCc1ccccc1 (stereo partly drawn) ?
7.00
